# TARGET SYSTEM: Beta-lactamase (Aeromonas hydrophila, UniProt Q44079)
# Sequence (Q44079 whole entry): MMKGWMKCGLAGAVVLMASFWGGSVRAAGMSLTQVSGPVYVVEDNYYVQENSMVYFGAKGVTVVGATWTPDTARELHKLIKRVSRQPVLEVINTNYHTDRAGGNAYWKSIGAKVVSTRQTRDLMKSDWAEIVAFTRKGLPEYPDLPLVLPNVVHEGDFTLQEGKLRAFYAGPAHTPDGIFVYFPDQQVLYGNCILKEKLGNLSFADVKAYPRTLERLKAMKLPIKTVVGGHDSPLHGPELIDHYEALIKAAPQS
# ASSAY COMMENT: Inhibition of Aeromonas hydrophila beta lactamase CphA at pH 7.0
EXPERIMENTAL ENDPOINT: Ki (µM)
Write it as a number; the unit µM goes unstated.

Dear colleague, I am looking for the recorded Ki of the following molecule: `O=C(O)c1ccccn1` 46

* * *

# TARGET SYSTEM: Beta-lactamase (Aeromonas hydrophila, UniProt Q44079)
# ASSAY COMMENT: Inhibition of Aeromonas hydrophila beta lactamase CphA at pH 8.0
EXPERIMENTAL ENDPOINT: pKi
pKi field: float, defined as -log10 of concentration (mol/L).

Dear colleague, I am looking for the recorded pKi of the following molecule: `O=C(O)c1ccccn1` 4.12
